Tested on: HepG2
Assay: GSK_TCMDC: Percent inhibition of human HepG2 cell line. Test compounds present at 10uM.
Type: functional
Please respond with reported Inhibition for every item in the list.
Give bare numbers, in %.

Observe how each entry below is paired with its result.
CC(C)N1CCC(NC(=O)N2CCCN(c3ncnc4cc(-c5ccc(Cl)cc5)sc34)CC2)CC1.O=C(O)C(F)(F)F
6
CCc1cn(CCc2ccccc2)c2ccc(C(=O)N[C@@H](Cc3ccccc3)[C@H](O)CNC(C)(C)CCCC(C)C)cc12.O=CO
66
O=C(Nc1ccc(Cl)cc1Cl)NC1CCN(CCCCCNC(=O)C2CC2c2ccc(Cl)c(Cl)c2)CC1 (centres undefined)
67

Exercise: Given CC(C)(C)c1ccc(NC(=O)c2ccc(CN3CCCN(Cc4ccc(F)cc4)CC3)cc2)cc1.O=C(O)C(F)(F)F , state its recorded Inhibition.
Key: 55
